Please provide measured IC50 for the entries that follow.
- System: HiBiT-tagged HTT protein
- test summary: HiBiT protein abundance assay, HTT (K562 HiBiT knock-in cells)
- Type: cell-based, human
- test context: 24 hours

Examples with their reported IC50 follow.
Cc1cn2cc(NC(=O)c3ccc(N4C[C@@H](C)N[C@@H](C)C4)c4ccnnc34)nc(C)c2n1 : > 10 µM
Cc1cn2nc(NC(=O)c3ccc(N4C[C@@H](C)N[C@@H](C)C4)c4nccnc34)cc2c(C)n1 : 0.1 to 1 µM
Cc1cn2cc(NC(=O)c3ccc(N4C[C@@H](C)N[C@@H](C)C4)c4nccnc34)cc(C#N)c2n1 : > 10 µM
Cc1cn2cc(NC(=O)c3ccc(N4CCN[C@@H](C5CC5)C4)c4nccnc34)cc(F)c2n1 : 1 to 10 µM
Cc1cn2cc(NC(=O)c3ccc(N4C[C@@H](C)N[C@@H](C)C4)c4nccnc34)cc(F)c2n1 : 1 to 10 µM
Cc1cn2cc(NC(=O)c3ccc(N4C[C@@H](C)N[C@@H](C)C4)c4nccnc34)nc(Cl)c2n1 : 1 to 10 µM

Let us move to another entry and its IC50.
Ask: Look up and report measured IC50 for this entry: Cc1cn2cc(NC(=O)c3ccc(N4CCNC5(COC5)C4)c4nccnc34)cc(F)c2n1
Result: > 10 µM

Hey, just so you know, these numbers are from patent US20240409536A1.
